Assay: TA1-1B in plasma, brain and tumor of HCT116 tumor-bearing mice
Assay type: in vivo
Conditions: female, NCr nu/nu, mouse, brain, 25.0 mg/kg single IV dose, 15 min post-dose, read-out: Concentration in brain
assay.metric: concentration at 15 min (nM)

molecule="CN1CCC[C@H]1CCNC(=O)c1cn2c3c(c(N4CCC(c5cnccn5)C4)c(F)cc3c1=O)Oc1cc3ccccc3cc1-2 (stereo partly shown) [TA1-1B]" readout_number=1470

====

Tested on: U251
Assay: Inhibition of cell proliferation (MTT)
Format: cell-based
Details: Homo sapiens, U-251; U251, CNS; 48 hours
assay.metric: EC50 (µM)

molecule="CN1CCC[C@H]1CCNC(=O)c1cn2c3c(c(N4CCC(c5cnccn5)C4)c(F)cc3c1=O)Oc1cc3ccccc3cc1-2 (stereo partly shown)" readout_number=2.68
